assay-info: Cytotoxicity assay (Alamar blue), HepG2
Assay type: cell-based
conditions-used: human, HepG2 cells; HepG2, 24 h
property-label: CC50 at 24 h

# example entries with known answers
O=C(O)c1c(O)cccc1CCc1ccccc1 [Sm22, 2-hydroxy-6-phenethylbenzoic acid]: > 100 µM
Cc1cc(O)c(C(=O)O)c(CCc2ccc3ccccc3c2)c1: 37.7 µM
COc1cc(/C=C\c2ccccc2)cc(OC)c1OC [Sm37, (Z)-1,2,3-trimethoxy-5-styrylbenzene]: > 100 µM
O=C(O)c1c(O)cccc1/C=C/c1ccccc1 [Sm21, (E)-2-hydroxy-6-styrylbenzoic acid]: > 100 µM

Which measured CC50 at 24 h value corresponds to COc1cc(/C=C/c2ccc3ccccc3c2)c(C(=O)O)c(OC)c1 ?
> 100 µM

State the recorded CC50 at 24 h for this entry: COc1cc(CCc2ccc3ccccc3c2)c(C(=O)O)c(OC)c1
> 100 µM

* * *

Measured remaining activity at 200 µM by item
experimental-system: UniProt P43680
Sequence (P43680 69-177): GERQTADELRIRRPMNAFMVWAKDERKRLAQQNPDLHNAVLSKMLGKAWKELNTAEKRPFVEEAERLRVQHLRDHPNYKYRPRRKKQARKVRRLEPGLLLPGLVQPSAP
assay-info: FP DNA-binding competition assay, SOX18[109] HMG fragment
conditions-used: 200 μM, SOX18/DNA binding; read-out: FP bound fraction (%) 200 μM
The response must be a number in % with no trailing unit.

For orientation, consider the following solved cases.
COc1cc(/C=C/c2ccc3ccccc3c2)c(C(=O)O)c(OC)c1: 92.8
COc1cc(/C=C/c2ccccc2)cc(OC)c1OC [Sm38, (E)-1,2,3-trimethoxy-5-styrylbenzene]: 120
CCN(CC)C(=O)c1c(/C=C/c2ccc3ccccc3c2)cccc1OC: 109
COc1cc(O)c(C(=O)O)c(CCc2ccc3ccccc3c2)c1: 2
COc1cc(CCc2ccc3ccccc3c2)c(C(=O)O)c(OC)c1: 109
Cc1cc(O)c(C(=O)O)c(/C=C/c2ccc3ccccc3c2)c1: -3.7

Requested read-out remaining activity at 200 µM, target or system UniProt P43680, entry COc1cc(/C=C\c2ccc3ccccc3c2)cc(OC)c1OC
90.2

State its remaining activity at 200 µM on UniProt P43680: CCN(CC)C(=O)c1c(/C=C\c2ccc3ccccc3c2)cccc1OC
121

Provide value of remaining activity at 200 µM for this record tested with UniProt P43680: COc1cc(C)cc(/C=C/c2ccc3ccccc3c2)c1C(=O)O
101

For the record COc1cc(CCc2ccc3ccccc3c2)cc(OC)c1OC , what value of remaining activity at 200 µM is listed for UniProt P43680?
113

Write down the reported remaining activity at 200 µM of COc1cc(Cl)cc(/C=C/c2ccc3ccccc3c2)c1C(=O)O , test system: UniProt P43680.
91.7

What is its remaining activity at 200 µM for UniProt P43680? Entry: O=C(O)c1c(O)cccc1/C=C/c1ccccc1 [Sm21, (E)-2-hydroxy-6-styrylbenzoic acid]
98.1

* * *

assay-info: Cytotoxicity assay (Alamar blue), HepG2
Format: cell-based
conditions-used: human, HepG2 cells; HepG2, 24 h
property-label: CC50 at 24 h (µM)
Report only the number, with the unit µM understood.

COc1cc(O)c(C(=O)O)c(CCc2ccc3ccccc3c2)c1: 71.2

As a next step, examine the compound that follows.
Return reported CC50 at 24 h; argument: CCN(CC)C(=O)c1c(O)cccc1CCc1ccc2ccccc2c1
28
